// data source = patent US20240108766A1

- experimental-target: T1, cynomolgus (Macaca fascicularis) LRRC15 extracellular domain with C-terminal His tag (cynomolgus monkey (Macaca fascicularis), UniProt Q8TF66 22-538 (human entry))
- T1 construct: Recombinant, made in HEK293; the entry holds the extracellular domain and the His tag; SPR analyte; also called TPP-9046
- T1 chain: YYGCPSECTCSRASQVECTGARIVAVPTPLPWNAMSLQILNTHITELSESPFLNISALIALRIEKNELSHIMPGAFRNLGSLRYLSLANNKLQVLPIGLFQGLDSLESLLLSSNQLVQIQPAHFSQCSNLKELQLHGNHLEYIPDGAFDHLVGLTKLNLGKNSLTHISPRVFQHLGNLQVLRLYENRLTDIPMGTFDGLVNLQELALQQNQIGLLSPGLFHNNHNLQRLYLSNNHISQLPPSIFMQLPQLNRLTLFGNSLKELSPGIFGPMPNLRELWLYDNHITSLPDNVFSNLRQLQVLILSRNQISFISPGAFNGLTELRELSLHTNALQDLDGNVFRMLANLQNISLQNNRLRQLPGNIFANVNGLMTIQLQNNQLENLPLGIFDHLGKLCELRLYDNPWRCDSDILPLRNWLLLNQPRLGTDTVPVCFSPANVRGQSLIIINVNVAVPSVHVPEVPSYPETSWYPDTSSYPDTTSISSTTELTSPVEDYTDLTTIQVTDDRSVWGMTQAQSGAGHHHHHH
- test-name: SPR Biacore T200, 25°C, antibody captured, LRRC15 analyte
pKd: −log10 of the molar value.
experimental-readout: pKd

TPP-14392 (antibody, human IgG1, kappa, V domains shown, also called 13612-rec05-hIgG1Kappa) VH: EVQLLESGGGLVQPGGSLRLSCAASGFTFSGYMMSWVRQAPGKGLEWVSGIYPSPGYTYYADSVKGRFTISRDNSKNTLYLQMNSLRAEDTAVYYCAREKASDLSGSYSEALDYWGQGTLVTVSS VL: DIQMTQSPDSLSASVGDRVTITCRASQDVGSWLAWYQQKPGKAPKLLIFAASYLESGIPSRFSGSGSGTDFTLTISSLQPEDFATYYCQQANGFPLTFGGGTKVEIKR ... 8.00
TPP-17421 (antibody, human IgG1, kappa, V domains shown, also called 438H-M306-C11-hIgG1Kappa) VH: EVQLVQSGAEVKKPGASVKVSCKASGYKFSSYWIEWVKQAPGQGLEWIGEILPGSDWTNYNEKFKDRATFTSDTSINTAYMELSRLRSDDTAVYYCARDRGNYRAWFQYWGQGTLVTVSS VL: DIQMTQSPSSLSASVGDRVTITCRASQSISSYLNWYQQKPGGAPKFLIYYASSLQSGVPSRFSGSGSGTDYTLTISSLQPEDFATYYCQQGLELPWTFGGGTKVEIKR ... 9.04
TPP-14389 (antibody, human IgG1, kappa, V domains shown, also called 13612-rec02-hIgG1Kappa) VH: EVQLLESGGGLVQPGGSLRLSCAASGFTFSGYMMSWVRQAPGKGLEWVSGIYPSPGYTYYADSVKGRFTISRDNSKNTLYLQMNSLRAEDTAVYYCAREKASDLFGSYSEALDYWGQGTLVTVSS VL: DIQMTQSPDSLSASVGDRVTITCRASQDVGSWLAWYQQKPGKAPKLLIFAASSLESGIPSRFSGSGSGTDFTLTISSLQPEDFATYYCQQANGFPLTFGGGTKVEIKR ... 8.05
